Biological target: Replicative DNA helicase DnaB (Mycobacterium tuberculosis)
Experiment: DnaB intein splicing inhibitors, dose response, biochemical, cell-free fluorescence (AID 449749)
Type: functional
Active and inactive are the calls of the source.
Assign a class; possible classes are yes (1) (active), no (0) (inactive)

Solved entries:
compound | cat
Cc1ccc(C2C(C#N)=C(N)Oc3[nH]c(-c4ccccc4)nc32)o1 (stereo unspecified) | yes (1)
COC(=O)c1sc(N)c(C(=O)OC)c1Cn1ncc(Cl)c(Cl)c1=O | yes (1)
CCc1ccc(S(=O)(=O)Nc2cc(SCC(=O)O)c(O)c3ccccc23)cc1 | yes (1)
CCOc1ccc(CN2CCN(CC3=Cc4cccc(OC)c4OC3)CC2CCO)cc1 (stereo unspecified) | no (0)

Assay result, entry `O=[N+]([O-])c1ccc(Sc2cccc[n+]2[O-])c2nonc12` — outcome?
yes (1)

Assay result, entry `O=C(Oc1cccc(OC(=O)c2ccco2)c1)c1ccco1` — outcome?
yes (1)

Assay result, entry `COc1cc(/C=C2/C(=O)N(c3ccc([N+](=O)[O-])cc3)N=C2N2CCOCC2)ccc1O` — outcome?
yes (1)

Assay result, entry CCCc1n[nH]c2c1C(c1ccc(OC(=O)N3CCOCC3)c(OC)c1)C(C#N)=C(N)O2 (stereo unspecified) — outcome?
yes (1)

Assay result, entry `N#Cc1c(N2CCCCC2)nc(N)c2c(N)nc(SCC(=O)O)cc12` — outcome?
yes (1)

Assay result, entry `Oc1c(Cl)cc(Cl)c(Cl)c1Cc1c(O)c(Cl)cc(Cl)c1Cl` — outcome?
yes (1)

Assay result, entry COc1cc(/C=N/NC(=S)Nc2cccc(Cl)c2C)ccc1OCC(=O)N1CC(C)OC(C)C1 (stereo unspecified) — outcome?
yes (1)

----------
Target: UniProt:P38532
Sequence (P38532 whole entry): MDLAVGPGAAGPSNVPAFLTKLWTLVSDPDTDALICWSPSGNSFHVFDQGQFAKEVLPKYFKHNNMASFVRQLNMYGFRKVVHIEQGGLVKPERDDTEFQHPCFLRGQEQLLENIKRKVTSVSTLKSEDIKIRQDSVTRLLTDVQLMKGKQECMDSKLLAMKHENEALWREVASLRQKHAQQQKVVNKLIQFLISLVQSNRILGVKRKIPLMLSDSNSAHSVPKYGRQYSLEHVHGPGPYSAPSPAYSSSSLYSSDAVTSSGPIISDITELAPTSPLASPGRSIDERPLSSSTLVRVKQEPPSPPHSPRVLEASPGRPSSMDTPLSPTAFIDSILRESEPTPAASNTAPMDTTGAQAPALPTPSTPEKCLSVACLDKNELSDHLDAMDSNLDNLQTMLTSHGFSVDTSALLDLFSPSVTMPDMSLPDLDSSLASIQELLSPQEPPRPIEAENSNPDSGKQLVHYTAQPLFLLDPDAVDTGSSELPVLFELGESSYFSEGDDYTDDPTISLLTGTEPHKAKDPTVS
Assay: inhibition of MG132-induced HSE-luciferase signal, confirmation, cell-based, NIH3T3, luminescence, dose retest (AID 2382);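 note: NIH3T3 fibroblasts with HSF1-driven luciferase reporter stressed by proteasome inhibitor MG132; luminescence from HSF1-driven luciferase expression after 8 hours of MG132 stress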
Format: functional
Calls of active or inactive are those of the source.
Listed here are compounds together with their documented EC50.

Record excerpt, results attached:
compound | EC50
N#Cc1c(N)nc2c3c(sc(=N)c2c1N)NC(=O)CC3c1ccccc1 (stereo unspecified) | > 195 µM (not active)
CCCNC(=O)NC1C(NC(=O)NCCC)N(C)C(=O)N1C (stereo unspecified) | > 195 µM (not active)
CN(C)c1ccc(/C=N/NC(=O)c2ccccc2Cl)cc1 | > 195 µM (not active)
C=CCn1c(C)cc(C(=O)COC(=O)CNC(=O)c2ccccc2)c1C | 2.44 µM (active)
Oc1ccccc1N1CCN(c2ncnc3scc(-c4ccc(F)cc4)c23)CC1 | > 195 µM (not active)

Please turn your attention to the following entry.
Look up and report measured EC50 (UniProt:P38532) for the following compound: COc1cccc(-n2c(SCC(=O)NCC3CCCO3)nc3c(c2=O)SCC3)c1 (stereo unspecified)
> 195 µM (not active)

----------
Test: Luminescence Cell-Based Dose Response HTS to Identify Inhibitors of 5'UTR Stem-Loop Driven Prion Protein mRNA Translation in H4 Neuroglioblastoma Cells. [Related pubchem assays: 1827 (Project Summary), 1813 (Primary HTS)]
Type: functional
The source made the active and inactive calls.
parameter: EC50

record-smiles | parameter | data-value
Cc1cc(C)cc(C(=O)N2CC(=O)Nc3ccccc32)c1 | EC50 | < 0.1 µM (active)
COc1ccc(OC)c(Nc2cc(C)nc3ccc(C)cc23)c1 | EC50 | 44.2 µM (active)
CCC(CC)NC(=O)c1cc2c(C)nn(Cc3ccccc3Cl)c2s1 | EC50 | > 120 µM (not active)

Please turn your attention to the following entry.
Give the reported EC50 for this molecule. `CCOC(=O)c1[nH]cnc1N=Nc1c(O)ccc2ccccc12`
9.18 µM (active)

----------
Target: FAD-linked sulfhydryl oxidase ALR (Homo sapiens, UniProt P55789)
Experiment: inhibitors of human ALR sulfhydryl oxidase, dose response, biochemical, H2O2 detection, luminescence, cherry-pick (AID 493248)
The source made the active and inactive calls.
parameter: AC50

Give the reported AC50 for this compound. `CCn1c(S)nnc1-c1ccccc1O`
9.17 µM (active)

----------
Target: UniProt P29990
Experiment: Dengue-2 NS5 methyltransferase inhibitors, primary screen, biochemical, confirmation dose response (AID 588689)
Format: functional
Activity calls are given as the source filed them.
parameter: IC50

compound | parameter | data-value
O=C1C(Cl)=CC(=Nc2ccc(O)cc2)C=C1Cl | IC50 | 7.02 µM (active)
Cc1cc(N2C(=O)C(O)=C(C(=O)c3ccc(C)o3)C2c2cccc(Oc3ccccc3)c2)no1 (stereo not given) | IC50 | 32 µM (active)
CCN(CC)C(=O)c1ccc2c(c1)C1C=CCC1C(C(=O)O)N2 (stereo not given) | IC50 | 86.7 µM (active)

Give the reported IC50 for this compound. CC1(C)CC(=O)C(C(C2=C(O)CC(C)(C)CC2=O)c2cccs2)C(=O)C1 (stereo not given)
46.3 µM (active)

----------
Listed here are compounds together with their documented EC50.
Tested on: BJ
Experiment: cytotoxicity toward BJ-TERT-LT-ST fibroblasts, dose response, cell-based, RAS-independent, luminescence (AID 1935);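 note: BJ fibroblasts immortalized with TERT plus LT and ST oncogenes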
Type: functional
Settings: Homo sapiens
The source made the active and inactive calls.

compound | system-under-test | EC50
CCCC(=O)NC(c1ccc(C(C)C)cc1)c1ccc2cccnc2c1O (centres undefined) | BJ | 2.1 µM (inconclusive)
Cc1cc(C)cc(C(=O)N2CC(=O)Nc3ccccc32)c1 | BJ | 11.5 µM (inconclusive)
CN(C)c1ccc(/C=C/C=C/c2sc3ccccc3[n+]2C)cc1.[O-][Cl+3]([O-])([O-])[O-] | BJ | 29.2 µM (active)

Please turn your attention to the following entry.
Give the reported EC50 for this compound. `Cc1cccc(NS(=O)(=O)c2ccc(NC(=O)CN(c3cc([N+](=O)[O-])ccc3C)S(C)(=O)=O)cc2)c1`
7.77 µM (inconclusive)

----------
Biological target: DNA dC->dU-editing enzyme APOBEC-3A (Homo sapiens, UniProt P31941)
Sequence (P31941 whole entry): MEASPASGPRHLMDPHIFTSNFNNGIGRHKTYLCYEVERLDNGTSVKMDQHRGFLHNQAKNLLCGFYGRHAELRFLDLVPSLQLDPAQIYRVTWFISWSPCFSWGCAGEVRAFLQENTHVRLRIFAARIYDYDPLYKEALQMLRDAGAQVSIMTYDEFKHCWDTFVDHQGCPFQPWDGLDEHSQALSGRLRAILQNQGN
Assay: Dose Response confirmation of small molecule APOBEC3A DNA Deaminase Inhibitors via a fluorescence-based single-stranded DNA deaminase assay. [Related pubchem assays (depositor defined):AID493011, AID493024]
Type: functional
Calls of active or inactive are those of the source.
parameter: IC50

compound | parameter | data-value
COC(=O)C1=C(C)N(CC2CC2)C(=NCCN2CCOCC2)N[C@H]1c1ccccc1 | IC50 | 5.16 µM (active)
COC(=O)C1=C(C)N(Cc2ccccc2)C(NCc2ccc(OC)cc2)=N[C@H]1c1ccccc1 | IC50 | 5.01 µM (active)
O=C1C2C(C(=O)N1/N=C/c1cc([N+](=O)[O-])c(O)cc1O)C1C=CC2C12CC2 (centres undefined) | IC50 | 11.3 µM (active)

Please turn your attention to the following entry.
Give the reported IC50 for this compound. `Cc1c2ccccc2cc(Cc2ccccc2)[n+]1C`
3.64 µM (active)

----------
Biological target: Major prion protein (Homo sapiens, UniProt P04156)
Type: functional, cell-based
Activity calls are given as the source filed them.
parameter: IC50

Give the reported IC50 for this compound. `CCc1nc(SCC(=O)NNC(=O)c2ccc(OC)cc2)c2ccccc2n1`
1.72 µM (active)

Give the reported IC50 for this compound. CN1C(=O)C(C)(C)c2cc(S(=O)(=O)N3CCCC(C(=O)Nc4ccc(Cl)cc4)C3)ccc21 (stereo not given)
5.86 µM (active)

Give the reported IC50 for this compound. `Brc1ccc(-c2nn3c(-c4ccco4)nnc3s2)o1`
4.14 µM (active)

Give the reported IC50 for this compound. `Cc1nc2c(Br)cc(Br)cc2cc1O`
1.36 µM (active)

Give the reported IC50 for this compound. `Brc1ccc2nc(-c3ccc(CN4CCC5(CC4)CNc4ccccc45)cc3)c(-c3ccccc3)nc2c1`
7.84 µM (active)

----------
AC50 tested on Cytochrome P450 3A4 (Homo sapiens, UniProt P08684): recorded values;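 note: CYP3A4 tested as one member of a cytochrome P450 panel screen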
Sequence (P08684 whole entry): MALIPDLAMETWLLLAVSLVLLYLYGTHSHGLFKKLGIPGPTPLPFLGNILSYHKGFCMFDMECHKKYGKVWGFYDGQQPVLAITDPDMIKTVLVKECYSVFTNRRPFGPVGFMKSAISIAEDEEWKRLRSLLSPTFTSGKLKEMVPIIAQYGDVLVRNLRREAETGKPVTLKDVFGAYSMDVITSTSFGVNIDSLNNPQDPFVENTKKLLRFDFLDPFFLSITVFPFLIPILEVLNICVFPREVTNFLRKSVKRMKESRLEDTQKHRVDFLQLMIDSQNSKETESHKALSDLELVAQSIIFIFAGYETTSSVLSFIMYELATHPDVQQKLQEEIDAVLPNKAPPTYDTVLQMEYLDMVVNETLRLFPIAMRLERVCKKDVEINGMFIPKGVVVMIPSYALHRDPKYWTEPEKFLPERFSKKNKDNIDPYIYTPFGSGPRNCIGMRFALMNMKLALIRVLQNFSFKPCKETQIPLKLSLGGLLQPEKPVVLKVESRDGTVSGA

Look up and report measured AC50 (Cytochrome P450 3A4 (Homo sapiens, UniProt P08684)) for the following molecule: `O=C(Nc1ccccc1)N1CC[C@@]2(CCCN(C(=O)c3cnccn3)C2)C1`
15.8 µM (inconclusive)

Look up and report measured AC50 (Cytochrome P450 3A4 (Homo sapiens, UniProt P08684)) for the following molecule: `COc1ncc2nc(-c3cc(F)cc(F)c3)c(=O)n(C[C@H]3CCCO3)c2n1`
25.1 µM (inconclusive)

Look up and report measured AC50 (Cytochrome P450 3A4 (Homo sapiens, UniProt P08684)) for the following molecule: CCN1CCCC1Cn1cnc2c3cc(C)ccc3nc-2c1O (stereo not given)
22.4 µM (inconclusive)

Look up and report measured AC50 (Cytochrome P450 3A4 (Homo sapiens, UniProt P08684)) for the following molecule: `COc1cc(/C=C(/NC(=O)c2ccccc2Cl)C(=O)O)cc(OC)c1OC`
14.1 µM (inconclusive)

Look up and report measured AC50 (Cytochrome P450 3A4 (Homo sapiens, UniProt P08684)) for the following molecule: `O=C(O)CN1CCN(Cc2ccccc2Cl)C1=O`
28.2 µM (inconclusive)

Look up and report measured AC50 (Cytochrome P450 3A4 (Homo sapiens, UniProt P08684)) for the following molecule: COc1cc(C2NC(=O)NC(O)(C(F)(F)F)C2C(=O)c2ccc(Cl)cc2)ccc1O (stereo not given)
15.8 µM (inconclusive)

Look up and report measured AC50 (Cytochrome P450 3A4 (Homo sapiens, UniProt P08684)) for the following molecule: `O=C(NC12CC3CC(CC(C3)C1)C2)C12CC3CC(C1)CC(n1cnc(Cl)n1)(C3)C2`
14.1 µM (inconclusive)

Look up and report measured AC50 (Cytochrome P450 3A4 (Homo sapiens, UniProt P08684)) for the following molecule: `Cn1c(=O)c(-c2cc(F)cc(F)c2)nc2cnc(N3CCNCC3)nc21`
31.6 µM (inconclusive)

Look up and report measured AC50 (Cytochrome P450 3A4 (Homo sapiens, UniProt P08684)) for the following molecule: `O=C(NNS(=O)(=O)c1ccccc1)c1cccnc1`
3.98 µM (inconclusive)

Look up and report measured AC50 (Cytochrome P450 3A4 (Homo sapiens, UniProt P08684)) for the following molecule: `O=C(Nc1ccccc1)N1CC[C@@]2(CCCN(C(=O)c3cc(C(F)(F)F)cc(C(F)(F)F)c3)C2)C1`
12.6 µM (inconclusive)

// data source = ChEMBL document CHEMBL1201862
